Field: TGI. Provide a value for each of the molecules that follow.
test system: SF-268 CNS; assay: NCI tumour cell line growth inhibition, 48 h

Hi team, please reply with TGI for each item in this list.
1. N#Cc1c(N)nc2n[nH]c(N)c2c1-c1ccc(Cl)cc1
2. CCOC(=O)C(=[N+]=[N-])[Si](C)(C)C
3. Cc1cc(Cl)ccc1NC(=O)C(=O)Cc1nc2ccccc2o1
4. O=C1CCCC1CN1CCCC1 (stereo not drawn)
5. CN(C)C(n1cc2c(c1)-c1ccc(Cl)cc1C(c1ccccc1F)=NC2)n1cc2c(c1)-c1ccc(Cl)cc1C(c1ccccc1F)=NC2
6. O=C1C=CC(=O)c2cc3cc(CBr)ccc3cc21

RESULT:
1. > 100 µM
2. 59.7 µM
3. > 100 µM
4. 48.5 µM
5. > 100 µM
6. > 73.9 µM

State the recorded TGI for every item in the following list.
1. C#C[C@]1(O)CCC2C3CCc4cc(O)ccc4C3CC[C@@]21C (stereo partly drawn)
2. CCCCCCc1cc2cc(C(=O)Nc3ccccc3)c(=N)oc2cc1O

RESULT:
["32.7 µM", "> 100 µM"]

Provenance of the data: PubChem BioAssay (NCI)
